Record form. Attribute: max activation. Fill in for each entry.
target: Nuclear receptor subfamily 1 group I member 2 (Rattus norvegicus); assay: Rat pregnane X receptor (rPXR) activation by small molecules, qHTS assay (AID 1346983); settings: rPXR luciferase reporter cells, One-Glo luminescence, 24 h; stronger effect = higher value; also: % is scaled to controls: 0 for no effect and ±100 for the full control effect; nearly all actives have a fitted effect of over 20% in size
Inconclusive results are not listed.
Output spec: scalar in %, unitless text.

Lookup result for CN1C(C(=O)Nc2ccccn2)=C(O)c2sccc2S1(=O)=O ; measured max activation: -1.49

Form field max activation, entry CC(C)Nc1cccnc1N1CCN(C(=O)c2cc3cc(NS(C)(=O)=O)ccc3[nH]2)CC1 : 0.79

Documented max activation of CC1(C)[C@@H](OC(=O)CCC(=O)O)CC[C@]2(C)[C@H]3C(=O)C=C4[C@@H]5C[C@@](C)(C(=O)O)CC[C@]5(C)CC[C@@]4(C)[C@]3(C)CC[C@@H]12 : -0.478

Kindly note the recorded max activation for O=C(CCCN1CC=C(n2c(=O)[nH]c3ccccc32)CC1)c1ccc(F)cc1 , which is 0.857

Documented max activation of C=C1c2cccc(O)c2C(O)=C2C(=O)[C@]3(O)C(O)=C(C(N)=O)C(=O)[C@@H](N(C)C)[C@@H]3[C@@H](O)[C@H]12 : -2.64

// max activation lookup, compound = CN1C(=O)OC(C)(C)C1=O , result: -2.55

# max activation (compound: C/C=C(/C(=C/C)c1ccc(O)cc1)c1ccc(O)cc1 ) is 0.107

Recorded max activation (compound CC[N+](CC)(CCNC(=O)C(=O)NCC[N+](CC)(CC)Cc1ccccc1Cl)Cc1ccccc1Cl ): -3.21

The measured max activation associated with C[C@]1(Cn2ccnn2)[C@H](C(=O)O)N2C(=O)C[C@H]2S1(=O)=O reads -2

The value of max activation measured for the compound CCN(CC)CCNC(=O)COc1ccc(OC)cc1 turned out to be 6.52

The recorded max activation for entry COc1cc(C(=O)NCCCCCC(=O)O)cc(OC)c1OC equals -0.807

Reported max activation of CC(=O)N/N=C/c1ccc([N+](=O)[O-])o1 : -3.83

Reported max activation of C[C@@H](O)[C@H]1C(=O)N2C(C(=O)O)=C([C@H]3CCCO3)S[C@H]12 : -4.46

Looking up CCn1cc(C(=O)O)c(=O)c2cc(F)c(N3CCNCC3)cc21 , I found its max activation recorded as 7.46

Record summary for O=C(O)CCC(=O)C(=O)O : reported max activation = -0.816

For this compound ( O[C@@H]1CO[C@H]2[C@@H]1OC[C@@H]2O ), measured max activation is -1.59

The recorded max activation for CCOC(=O)OC(C)OC(=O)[C@@H]1N2C(=O)[C@@H](NC(=O)[C@H](N)c3ccccc3)[C@H]2SC1(C)C (some centres not stated) is 0.482

Notebook: Oc1cccc(O)c1O , max activation read as -5.99

Given item COc1cc(N)c(Cl)cc1C(=O)NC1CCN(CCCOc2ccc(F)cc2)CC1OC (configuration not stated) , the value recorded as its max activation is -2.9

O=C(O)c1ccc(OCCCOc2ccc(C(=O)O)cc2)cc1 yielded max activation of -2.11

Per the records, this compound ( O=C(O)CCc1nc(-c2ccccc2)c(-c2ccccc2)o1 ) has max activation equal to -4.22

Looking up CCOC(C)=O , I found its max activation recorded as -1.67

###

test: qHTS assay to identify small molecule antagonists of the sonic hedgehog signaling (Shh) pathway - cell viability counter screen (AID 1259367); conditions: NIH/3T3 Gli1-Luc viability, CellTiter-Fluor, 24 h; series mostly up to 92.4 µM; also: nearly all actives have a fitted effect of over 55% in size
Results filed as inconclusive are left out. The source made the active and inactive calls. Calls come from the whole dose curve; as a rule, active = well fitted cell-killing curve with a large enough effect in the repeat runs; inconclusive = weak or mixed curves, or effect the other way; inactive = no such curve, though single readings can be large or run the other way.
API: response.call in TRUE for active, FALSE for inactive

Request: What call does the record list for CCC(OCCCOC)OC(C)=O (stereo not drawn) ?
Response: FALSE

Request: Recorded call for COc1ccccc1N1CCN(CC(O)COc2cccc3ccccc23)CC1 (stereo not drawn) ?
Response: FALSE

Request: Recorded test outcome, item Oc1c(I)cc(I)c2cccnc12
Response: FALSE

Request: Field: outcome | Entry: CCCCCCC(C)(C)C(=O)O
Response: FALSE

Request: Returns: the outcome recorded for OCCN1CCN(CCCN2c3ccccc3Sc3ccc(Cl)cc32)CC1 in this assay.
Response: TRUE

Request: Tell me the assay call for CC(C)(c1ccccc1)c1ccccc1 please.
Response: FALSE

Request: # outcome recorded in this test, key = O=C1C(=O)c2ccccc2C(O)=C1C1CCC(c2ccc(Cl)cc2)CC1 (stereo not drawn)
Response: FALSE

Request: Record request — test call for COc1ccc(OC(=O)N(CC(=O)O)Cc2ccc(OCCc3nc(-c4ccccc4)oc3C)cc2)cc1
Response: FALSE

Request: For CCCCCCCCCCCCCCN(CCO)CCO , which call appears in the assay record?
Response: FALSE

Request: Can you look up the reported call for C1C[C@@H]2[C@H]3CC[C@H](C3)[C@@H]2C1 for me?
Response: FALSE

Request: Outcome logged for CCCCC(CC)CN (stereo not drawn) in this assay:
Response: FALSE

Request: What call does the record list for N#CCc1ccc(Cl)cc1Cl ?
Response: FALSE

Request: So what was the verdict on COc1cc(N)c(Cl)cc1C(=O)NC1CCN(CCCOc2ccc(F)cc2)CC1OC (stereo not drawn) in this test?
Response: FALSE

Request: Answer briefly: the call reported for CCCCCC[C@@H](O)C/C=C\CCCCCCCC(=O)OCC(O)CO (stereo partly drawn) in this assay.
Response: FALSE

Request: Which outcome did this test record for the molecule c1cc(N(CC2CO2)CC2CO2)ccc1Cc1ccc(N(CC2CO2)CC2CO2)cc1 (stereo not drawn) ?
Response: TRUE

Request: Hi, do you know how CCC(C)COC(=O)CC(C)C (stereo not drawn) came out in this test?
Response: FALSE

Request: I'd appreciate the recorded outcome for Cc1cccc(N(C)C(=S)Oc2ccc3c(c2)CCC3)c1 from this test.
Response: FALSE

Request: Test call for this molecule, please: Cc1cc(O)c(C)c(C)c1O
Response: FALSE

Request: Look up the recorded call for C1COC1 in this test.
Response: FALSE

Request: // return assay outcome for C=C(C)C(=O)OCCCCCCCCCCCCC
Response: FALSE

Request: Look up the recorded call for O=c1cc(-c2ccccc2)oc2cc(O)cc(O)c12 in this test.
Response: TRUE

Request: Hi, sorry to bother you, what did the test record for NC(=O)c1ccncc1 ?
Response: FALSE

Request: State the result this test recorded for C[C@@H](O)[C@H]1C(=O)N2C(C(=O)O)=C([C@H]3CCCO3)S[C@H]12 .
Response: FALSE

Request: Hi, do you know how CCCCCCCCC(CCCCCC)C(=O)O (stereo not drawn) came out in this test?
Response: FALSE

Request: Would you mind telling me which call this test gave CCOC(=O)c1ccc(I)cc1 ?
Response: FALSE

Request: Returns: the outcome recorded for CCn1cc(C(=O)O)c(=O)c2cc(F)c(N3CCNCC3)cc21 in this assay.
Response: FALSE

Request: Hi, do you know how CC1(C)[C@@H](OC(=O)CCC(=O)O)CC[C@]2(C)[C@H]3C(=O)C=C4[C@@H]5C[C@@](C)(C(=O)O)CC[C@]5(C)CC[C@@]4(C)[C@]3(C)CC[C@@H]12 came out in this test?
Response: FALSE

Request: Recorded test call requested for Cc1ccc(Cl)c(Nc2ccccc2C(=O)O)c1Cl
Response: FALSE

###

target: Estrogen receptor (Homo sapiens); test: qHTS assay to identify small molecule antagonists of the estrogen receptor alpha (ER-alpha) signaling pathway (AID 743069); details: HEK293 ER-alpha-UAS-bla, beta-lactamase ratio, antagonist mode; series mostly up to 69.4 µM
Records with an inconclusive call do not appear. Calls of active or inactive are those of the source. The call rests on the fitted dose curve; in most records, active means well fitted curve in the direction sought with a large enough effect in the signal ratio in the repeat runs (not every such curve was filed as active); inconclusive means weak or mixed curves, or effect the other way; inactive means no such curve, though single readings can be large or run the other way; the % refers to the signal ratio.
Respond using exactly one of the listed classes: YES = active, NO = inactive

Request: Would you mind telling me which call this test gave Cc1ccc(C(C)(C)O)cc1 ?
Response: NO

Request: Lab log entry: C/C=C\C/C=C/CCCCCCCCOC(C)=O — outcome as called in the assay?
Response: NO

Request: Hi, sorry to bother you, what did the test record for O=C(O)C[C@H](NC(=O)OCc1ccccc1)C(=O)O ?
Response: NO

Request: What classification did NCCNCCO end up with in this test?
Response: NO

Request: Hey, what did the test say about COc1ncnc(NS(=O)(=O)c2ccc(N)cc2)c1OC ?
Response: NO

Request: Recorded test call requested for OCCOCC#CCOCCO
Response: NO

Request: Test call, this compound: C=C1CCC2CC1C2(C)C (stereo not given)
Response: NO

Request: Hi, do you know how CCCCCC#CC(=O)OC came out in this test?
Response: NO

Request: Entry OCCN1CCN(CCCN2c3ccccc3Sc3ccc(Cl)cc32)CC1 : call = ?
Response: NO

Request: Could you kindly confirm the outcome this assay logged for Cc1cc2c(OCC(CNC(C)(C)C)OC(=O)c3ccccc3)cccc2[nH]1 (stereo not given) ?
Response: NO

Request: Hi, sorry to bother you, what did the test record for CN1C(=O)N(c2ccccc2Br)Cc2cnc(Nc3ccc4c(c3)OCC(CO)O4)nc21 (stereo not given) ?
Response: YES

Request: Please state the recorded outcome for this compound: CCCCCCCCCI
Response: NO

Request: What was the test verdict on CCOC(=O)c1ccc(I)cc1 ?
Response: NO

Request: Lab log entry: COc1ccccc1N1CCN(CCCCNC(=O)c2ccc(-c3ccc(C(C)=O)cc3)cc2)CC1 — outcome as called in the assay?
Response: NO

Request: Hi team, can someone confirm the assay call for c1ccc2sc(SN(C3CCCCC3)C3CCCCC3)nc2c1 ?
Response: NO

The origin of these recorded values is PubChem BioAssay (Tox21).
